pIC50: −log10 of the molar value.
Coagulation factor X (Homo sapiens, UniProt P00742) data, read-out pIC50
Sequence (P00742 41-179 limits assumed): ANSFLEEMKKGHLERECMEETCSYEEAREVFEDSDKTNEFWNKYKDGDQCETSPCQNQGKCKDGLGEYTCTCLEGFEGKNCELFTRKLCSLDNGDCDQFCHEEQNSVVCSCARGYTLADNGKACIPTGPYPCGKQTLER
Sequence (P00742 235-488 limits assumed): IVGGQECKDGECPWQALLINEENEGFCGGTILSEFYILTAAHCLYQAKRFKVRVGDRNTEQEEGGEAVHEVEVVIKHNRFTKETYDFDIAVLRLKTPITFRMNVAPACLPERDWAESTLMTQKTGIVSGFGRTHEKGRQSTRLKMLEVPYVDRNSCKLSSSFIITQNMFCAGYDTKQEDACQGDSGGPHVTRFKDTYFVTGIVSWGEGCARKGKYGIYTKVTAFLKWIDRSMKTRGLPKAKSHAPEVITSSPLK
endpoint_name: pIC50

[[record]]
entry_smiles = "Cc1cc(C(=O)Nc2ccc(N3CCCCC3)cc2)n(-c2ccc3cc(Cl)ccc3c2)n1"
test_target = "Coagulation factor X (Homo sapiens, UniProt P00742)"
endpoint_name = "pIC50"
measured_number = 6.88

[[record]]
entry_smiles = "Cc1cc(C(=O)Nc2ccc(-n3ccnc3CN(C)C)cc2)n(-c2ccc3cc(Cl)ccc3c2)n1"
test_target = "Coagulation factor X (Homo sapiens, UniProt P00742)"
endpoint_name = "pIC50"
measured_number = 8.10

[[record]]
entry_smiles = "Cc1cc(C(=O)Nc2ccc(-c3cccnc3)cc2F)n(-c2ccc3cc(Cl)ccc3c2)n1"
test_target = "Coagulation factor X (Homo sapiens, UniProt P00742)"
endpoint_name = "pIC50"
measured_number = 7.04

[[record]]
entry_smiles = "Cc1cc(C(=O)Nc2ccc(-c3ccccc3CN)cc2F)n(-c2cc3ccccc3cc2F)n1"
test_target = "Coagulation factor X (Homo sapiens, UniProt P00742)"
endpoint_name = "pIC50"
measured_number = 8.70

[[record]]
entry_smiles = "Cc1cc(C(=O)Nc2ccc(-c3ccccn3)cc2F)n(-c2ccc3cc(Cl)ccc3c2)n1"
test_target = "Coagulation factor X (Homo sapiens, UniProt P00742)"
endpoint_name = "pIC50"
measured_number = 7.03


----------
- experiment: Clearance rate in rat
- Type: ADME, organism-based
- conditions_used: in vivo
Just a reminder that ties go to 0.0: only clearance strictly below 2 L/h/kg counts as 1.0.

[[record]]
entry_smiles = "Cc1cc(C(=O)Nc2ccc(N3CCOCC3=O)cc2F)n(-c2cc3ccccc3cc2S(C)(=O)=O)n1"
classification = 1.0

[[record]]
entry_smiles = "Cc1cc(C(=O)Nc2ccc(-c3ccccc3CN(C)C)cc2F)n(-c2cc3ccccc3cc2S(C)(=O)=O)n1"
classification = 0.0

[[record]]
entry_smiles = "Cc1cc(C(=O)Nc2ccc(-c3ccccc3CN(C)C)cc2F)n(-c2ccc3cc(Cl)ccc3c2)n1"
classification = 0.0

[[record]]
entry_smiles = "Cc1cc(C(=O)Nc2ccc(-c3ccccc3S(C)(=O)=O)cc2F)n(-c2cc3ccccc3cc2S(C)(=O)=O)n1"
classification = 0.0

[[record]]
entry_smiles = "Cc1cc(C(=O)Nc2ccc(-c3ccccc3CN)cc2F)n(-c2cc3ccccc3cc2F)n1"
classification = 0.0


----------
- test_target: Coagulation factor X (Homo sapiens, UniProt P00742)
- experiment: In vitro anticoagulant potency measured in human plasma by thrombin generation (TG) assay expressed as 2 x TG
- Assay type: functional, cell-free
Parameter Activity: see the listing below.
endpoint_name: Activity (µM)

[[record]]
entry_smiles = "Cc1cc(C(=O)Nc2ccc(-c3ccccc3S(C)(=O)=O)cc2F)n(-c2ccc3cc(Cl)ccc3c2)n1"
test_target = "Coagulation factor X (Homo sapiens, UniProt P00742)"
endpoint_name = "Activity"
inequality_sign = ">"
measured_number = 5

[[record]]
entry_smiles = "Cc1cc(C(=O)Nc2ccc(-n3ccnc3CN(C)C)cc2)n(-c2ccc3cc(Cl)ccc3c2)n1"
test_target = "Coagulation factor X (Homo sapiens, UniProt P00742)"
endpoint_name = "Activity"
inequality_sign = ">"
measured_number = 5

[[record]]
entry_smiles = "Cc1cc(C(=O)Nc2ccc(-c3ccccc3CN(C)C)cc2F)n(-c2cc3ccccc3cc2S(C)(=O)=O)n1"
test_target = "Coagulation factor X (Homo sapiens, UniProt P00742)"
endpoint_name = "Activity"
inequality_sign = "="
measured_number = 0.64

[[record]]
entry_smiles = "Cc1cc(C(=O)Nc2ccc(N3CCCN(C)CC3)cc2)n(-c2ccc3cc(Cl)ccc3c2)n1"
test_target = "Coagulation factor X (Homo sapiens, UniProt P00742)"
endpoint_name = "Activity"
inequality_sign = "="
measured_number = 5

[[record]]
entry_smiles = "Cc1cc(C(=O)Nc2ccc(-c3ccccc3CN(C)C)cc2)n(-c2ccc3cc(Cl)ccc3c2)n1"
test_target = "Coagulation factor X (Homo sapiens, UniProt P00742)"
endpoint_name = "Activity"
inequality_sign = "="
measured_number = 2

[[record]]
entry_smiles = "Cc1cc(C(=O)Nc2ncc(-c3ccccc3S(N)(=O)=O)cn2)n(-c2ccc3cc(Cl)ccc3c2)n1"
test_target = "Coagulation factor X (Homo sapiens, UniProt P00742)"
endpoint_name = "Activity"
inequality_sign = "="
measured_number = 2

[[record]]
entry_smiles = "Cc1cc(C(=O)Nc2ccc(C(=O)N3CCCC3)cc2)n(-c2ccc3cc(Cl)ccc3c2)n1"
test_target = "Coagulation factor X (Homo sapiens, UniProt P00742)"
endpoint_name = "Activity"
inequality_sign = ">"
measured_number = 5

[[record]]
entry_smiles = "Cc1cc(C(=O)Nc2ccc(N3CCOCC3=O)cc2F)n(-c2cc3ccccc3cc2F)n1"
test_target = "Coagulation factor X (Homo sapiens, UniProt P00742)"
endpoint_name = "Activity"
inequality_sign = ">"
measured_number = 5

[[record]]
entry_smiles = "Cc1cc(C(=O)Nc2ccc(-c3ccccc3S(N)(=O)=O)cc2)n(-c2ccc3cc(Cl)ccc3c2)n1"
test_target = "Coagulation factor X (Homo sapiens, UniProt P00742)"
endpoint_name = "Activity"
inequality_sign = ">"
measured_number = 5

[[record]]
entry_smiles = "Cc1cc(C(=O)Nc2ccc(-c3ccccc3S(C)(=O)=O)cc2)n(-c2ccc3cc(Cl)ccc3c2)n1"
test_target = "Coagulation factor X (Homo sapiens, UniProt P00742)"
endpoint_name = "Activity"
inequality_sign = ">"
measured_number = 5

[[record]]
entry_smiles = "Cc1cc(C(=O)Nc2ccc(-n3ccnc3CN(C)C)cc2F)n(-c2ccc3cc(Cl)ccc3c2)n1"
test_target = "Coagulation factor X (Homo sapiens, UniProt P00742)"
endpoint_name = "Activity"
inequality_sign = "="
measured_number = 3

[[record]]
entry_smiles = "Cc1cc(C(=O)Nc2ccc(N3CCOCC3=O)cc2F)n(-c2cc3ccccc3cc2S(C)(=O)=O)n1"
test_target = "Coagulation factor X (Homo sapiens, UniProt P00742)"
endpoint_name = "Activity"
inequality_sign = "="
measured_number = 0.44

[[record]]
entry_smiles = "Cc1cc(C(=O)Nc2ccc(-n3ccnc3CN(C)C)cc2F)n(-c2cc3ccccc3cc2S(C)(=O)=O)n1"
test_target = "Coagulation factor X (Homo sapiens, UniProt P00742)"
endpoint_name = "Activity"
inequality_sign = "="
measured_number = 1.7

[[record]]
entry_smiles = "Cc1cc(C(=O)Nc2ccc(C(=O)N(C)C)cc2)n(-c2ccc3cc(Cl)ccc3c2)n1"
test_target = "Coagulation factor X (Homo sapiens, UniProt P00742)"
endpoint_name = "Activity"
inequality_sign = ">"
measured_number = 5

[[record]]
entry_smiles = "Cc1cc(C(=O)Nc2ccc(-c3ccccc3CN(C)C)cc2F)n(-c2ccc3cc(Cl)ccc3c2)n1"
test_target = "Coagulation factor X (Homo sapiens, UniProt P00742)"
endpoint_name = "Activity"
inequality_sign = "="
measured_number = 1.7

[[record]]
entry_smiles = "Cc1cc(C(=O)Nc2ccc(-n3ccnc3C)cc2)n(-c2ccc3cc(Cl)ccc3c2)n1"
test_target = "Coagulation factor X (Homo sapiens, UniProt P00742)"
endpoint_name = "Activity"
inequality_sign = ">"
measured_number = 5

[[record]]
entry_smiles = "Cc1cc(C(=O)Nc2ccc(-c3ccccc3S(N)(=O)=O)cn2)n(-c2ccc3cc(Cl)ccc3c2)n1"
test_target = "Coagulation factor X (Homo sapiens, UniProt P00742)"
endpoint_name = "Activity"
inequality_sign = "="
measured_number = 2

[[record]]
entry_smiles = "Cc1cc(C(=O)Nc2ccc(N3CCOCC3=O)cc2F)n(-c2ccc3cc(Cl)ccc3c2)n1"
test_target = "Coagulation factor X (Homo sapiens, UniProt P00742)"
endpoint_name = "Activity"
inequality_sign = "="
measured_number = 5

